Known switch fluorescence ratio of a selection of sequences
System: ATP;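 further: ATP exposure 15 min at 22 °C before imaging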
experimental-details: switch fluorescence ratio, 500 uM ATP over buffer (Cy3 cluster intensity, sum of 5 cycles each) (fold (ratio)); higher = stronger signal-on switching upon ATP binding; sequences stand for … in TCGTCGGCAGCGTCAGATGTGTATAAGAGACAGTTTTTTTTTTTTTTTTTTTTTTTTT…TC
condition-set: aptamer strand: ATP DNA aptamer (quencher-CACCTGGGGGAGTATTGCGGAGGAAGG + anchor), 100 nM annealed; ATP concentration: 500 uM
Answer with a number only.

Use the examples below as a reference point.
sequence-content	switch fluorescence ratio
GCGCGTAGGC	1
TACTTGAGTA	1
TGGGGTCATG	0.989
ATCAATGAAG	0.975

Now look at this entry.
Looking for the measured switch fluorescence ratio of ATTTAAATGT , can you help? 1.01

====

switch fluorescence ratio for assorted sequences
Test system: ATP;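 further: ATP exposure 15 min at 22 °C before imaging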
experimental-details: switch fluorescence ratio, 500 uM ATP over buffer (Cy3 cluster intensity, sum of 5 cycles each) (fold (ratio)); higher = stronger signal-on switching upon ATP binding; sequences stand for … in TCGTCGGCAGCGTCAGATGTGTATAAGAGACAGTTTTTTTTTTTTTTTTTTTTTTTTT…TC
condition-set: aptamer strand: ATP DNA aptamer (quencher-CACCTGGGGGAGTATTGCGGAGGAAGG + anchor), 100 nM annealed; ATP concentration: 500 uM
Keep it simple and answer with nothing but the number.

Use these answered entries as a reference point.
sequence-content	switch fluorescence ratio
ATACTGGTAG	1.02
GGGCGGACGT	0.969
AATTTGGTCG	0.978
TCGCGGGCTA	1.04
TCTTCGTTTT	1.23

Requested field: switch fluorescence ratio. Item: TTGCCGCTGT 1.18

Would you kindly share the measured switch fluorescence ratio for TTTAGGGATT ? 1.03

# lookup: switch fluorescence ratio of TGTGATAGTT 0.999

====

Test system: ATP;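 further: ATP exposure 15 min at 22 °C before imaging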
experimental-details: switch fluorescence ratio, 500 uM ATP over buffer (Cy3 cluster intensity, sum of 5 cycles each) (fold (ratio)); higher = stronger signal-on switching upon ATP binding; sequences stand for … in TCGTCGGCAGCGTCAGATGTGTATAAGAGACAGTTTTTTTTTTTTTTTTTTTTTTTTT…TC
condition-set: aptamer strand: ATP DNA aptamer (quencher-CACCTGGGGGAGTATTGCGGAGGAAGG + anchor), 100 nM annealed; ATP concentration: 500 uM
endpoint: switch fluorescence ratio
The reply should be a number, written without any unit.

For orientation, consider the following solved cases.
sequence-content	target-system	switch fluorescence ratio
GCGAGTTGGG	ATP	0.985
CTGACTTCAT	ATP	1.05
CTTAAATGTA	ATP	0.982
CGTAGATAGC	ATP	1.07
TTCAAATTTT	ATP	1.01

Param readout= switch fluorescence ratio; system= ATP; entry= ACGGATGTTG ; returns value. 1.01

Please provide the recorded switch fluorescence ratio for AAAAGGGCGT , tested on ATP. 0.994

Short answer please: switch fluorescence ratio, ATP, entry ATTGAAGGGA 1.02

Hi! What's the reported switch fluorescence ratio for AATTACGTAA on ATP? 1.06

# get_value(readout= switch fluorescence ratio, system= ATP) for GCTAGTGGGG 0.999

====

System: ATP;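 further: ATP exposure 15 min at 22 °C before imaging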
experimental-details: switch fluorescence ratio, 500 uM ATP over buffer (Cy3 cluster intensity, sum of 5 cycles each) (fold (ratio)); higher = stronger signal-on switching upon ATP binding; sequences stand for … in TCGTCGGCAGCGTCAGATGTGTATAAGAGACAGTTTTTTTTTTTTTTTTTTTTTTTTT…TC
condition-set: aptamer strand: ATP DNA aptamer (quencher-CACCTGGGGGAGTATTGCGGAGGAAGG + anchor), 100 nM annealed; ATP concentration: 500 uM
endpoint: switch fluorescence ratio
The answer should be written as a number, with no unit following it.

Some entries whose results are on file:
sequence-content	endpoint	quantitative-readout
CGGGAACTCT	switch fluorescence ratio	1.01
GGTTTCCGGG	switch fluorescence ratio	1.01
AGTGGGGAGA	switch fluorescence ratio	1.02

Name the recorded switch fluorescence ratio for ATCGCATATG . 1.08

switch fluorescence ratio lookup needed for TGGTAAAGCT , thanks. 0.994
